System: LNCaP xenograft
Measurement Description: Biodistribution of 68Ga-labeled compounds in mice bearing LNCaP xenograft
Assay type: in vivo
Reported Conditions: Heart, 1 h p.i.
Source text: All chemicals and solvents were obtained from commercial sources, and used without further purification. PSMA-targeted peptides were synthesized using a solid phase approach on an AAPPTec (Louisville, KY) Endeavor 90 peptide synthesizer. […]
Below, each entry is listed alongside its reported Biodistribution, Heart (Avg).

{"Compound": "O=C(O)CCCC(NC(=O)NC(CCCONC(=O)C(Cc1c2ccccc2cc2ccccc12)NC(=O)C1CCC(CNC(=O)CN2CCN(CC(=O)O)CCN(CC(=O)O)CCN(CC(=O)O)CC2)CC1)C(=O)O)C(=O)O.[68Ga] (stereo not shown) [^68Ga-CCZ02018]", "Target Of Assay": "LNCaP xenograft", "Biodistribution, Heart (Avg) / % ID/g": 0.18}
{"Compound": "O=C(O)CCCC(NC(=O)NC(COCCNC(=O)C(Cc1c2ccccc2cc2ccccc12)NC(=O)C1CCC(CNC(=O)CN2CCN(CC(=O)O)CCN(CC(=O)O)CCN(CC(=O)O)CC2)CC1)C(=O)O)C(=O)O.[68Ga] (stereo not shown) [^68Ga-CCZ02011]", "Target Of Assay": "LNCaP xenograft", "Biodistribution, Heart (Avg) / % ID/g": 0.18}
{"Compound": "O=C(O)CSCC(NC(=O)NC(CNC(=O)CNC(=O)C(Cc1c2ccccc2cc2ccccc12)NC(=O)C1CCC(CNC(=O)CN2CCN(CC(=O)O)CCN(CC(=O)O)CCN(CC(=O)O)CC2)CC1)C(=O)O)C(=O)O.[68Ga] (stereo not shown) [68Ga-CCZ01194]", "Target Of Assay": "LNCaP xenograft", "Biodistribution, Heart (Avg) / % ID/g": 0.27}
{"Compound": "O=C(O)CCCC(NC(=O)NC(CNC(=O)CNC(=O)C(Cc1c2ccccc2cc2ccccc12)NC(=O)C1CCC(CNC(=O)CN2CCN(CC(=O)O)CCN(CC(=O)O)CCN(CC(=O)O)CC2)CC1)C(=O)O)C(=O)O.[68Ga] (stereo not shown) [68Ga-CCZ01198]", "Target Of Assay": "LNCaP xenograft", "Biodistribution, Heart (Avg) / % ID/g": 0.11}
{"Compound": "O=C(O)CSCC(NC(=O)NC(Cc1ccc(NC(=O)C(Cc2c3ccccc3cc3ccccc23)NC(=O)C2CCC(CNC(=O)CN3CCN(CC(=O)O)CCN(CC(=O)O)CCN(CC(=O)O)CC3)CC2)cc1)C(=O)O)C(=O)O.[68Ga] (stereo not shown) [^68Ga-CCZ01188]", "Target Of Assay": "LNCaP xenograft", "Biodistribution, Heart (Avg) / % ID/g": 1.03}
{"Compound": "O=C(O)CSCC(NC(=O)NC(Cc1cn(CCNC(=O)C(Cc2c3ccccc3cc3ccccc23)NC(=O)C2CCC(CNC(=O)CN3CCN(CC(=O)O)CCN(CC(=O)O)CCN(CC(=O)O)CC3)CC2)nn1)C(=O)O)C(=O)O.[68Ga] (stereo not shown) [^68Ga-CCZ01186]", "Target Of Assay": "LNCaP xenograft", "Biodistribution, Heart (Avg) / % ID/g": 0.57}
{"Compound": "O=C(O)CCC[C@H](OC(=O)N[C@@H](CCCCNC(=O)[C@H](Cc1c2ccccc2cc2ccccc12)NC(=O)[C@H]1CC[C@H](CNC(=O)CCc2ccc(O)c(CN(CCN(CC(=O)O)Cc3cc(CCC(=O)O)ccc3O)CC(=O)O)c2)CC1)C(=O)O)C(=O)O.[68Ga] [^68Ga-AR-113-1]", "Target Of Assay": "LNCaP xenograft", "Biodistribution, Heart (Avg) / % ID/g": 0.85}
